So I've got a bunch of sequences here, and I need their Tm values.
Assay Procedure: melting temperature; fluorescence melt of hairpins on a sequencing array, two-state fit, raised by 9.35 °C to match UV melts
Experimental Conditions: sodium 0.088 M
Your answer is read as °C, so omit the unit and give the number.

Input GCGGCCCACCGC ((((....)))) . Output Tm: 60

Input GGGCTAGGAAACTAACCC (((.(((....))).))) . Output Tm: 39.2

Input GTATAAGGAAACTTATAC (((((((....))))))) . Output Tm: 46

Input CTTACGAAAGTAAG (((((....))))) . Output Tm: 49.2

Input GCTAGCGAAAGCTGGAGC ((((((....)))..))) . Output Tm: 43.2

Input GTCACCGAAAGGTCTGAC ((((((....)))..))) . Output Tm: 33.7

Input GGACCAGGAAACTGATCC (((.(((....))).))) . Output Tm: 40.3

Input GATGACGAAAGTCAGATC ((((((....)))..))) . Output Tm: 52.1

Input GCCGTGCGAAAGCTTGGC (((..((....))..))) . Output Tm: 59.6

Input GATCAAAGATTTGATC ((((((....)))))) . Output Tm: 43.6

Input GACGACGGAAACGTTGTC (((.(((....))).))) . Output Tm: 55

Input GCGCATTCGAAAGAACGC (((..(((....)))))) . Output Tm: 41.4

Input GCTTGGCGAAAGCACAGC (((..((....))..))) . Output Tm: 42.2

Input GACACAGGAAACTGTGCC (.(((((....))))).) . Output Tm: 45

Input GCAAGGCGAAAGCCAGGC ((..(((....)))..)) . Output Tm: 52.2

Input GGGGATGGAAACACCCCC ((((.((....)).)))) . Output Tm: 49

Input GACAGTCCGAAAGGAGTC (((..(((....)))))) . Output Tm: 30.3

Input GCGGGCCGCCGC ((((....)))) . Output Tm: 61.5

Input GATCCAGCCTTGGATC ((((((....)))))) . Output Tm: 53.5

Input GAGCCTGGAAACGGGCTC (((((.(....).))))) . Output Tm: 58.9

Input GATCAATGGTTGATC ((((((...)))))) . Output Tm: 41

Input GCAGACGAAAGTCATGC ((((((....))).))) . Output Tm: 51

Input GGGCTAGCGAAAGCTCCC (((..(((....)))))) . Output Tm: 38.8

Input GAAGTACGAAAGTAATTC (((.(((....))).))) . Output Tm: 42.9

Input GATCAAGGAAACTTGATC (((((((....))))))) . Output Tm: 54

----------
Assay Procedure: melting temperature; fluorescence melt of hairpins on a sequencing array, two-state fit, raised by 9.35 °C to match UV melts
Experimental Conditions: sodium 0.088 M
# thresholds on Tm define classes: range 1: < 40 °C; range 2: ≥ 40 °C and < 50 °C; range 3: ≥ 50 °C

Category of GCGCGGCGAAAGCCTCGC (((.(((....))).))) , please.
range 3

Category of GAGTAAGGAAACTCACTC ((((.((....)).)))) , please.
range 1

Category of GATCGAGGAAACTCGATC (((((((....))))))) , please.
range 3

Category of GCCGGCGAAAGCCCAGGC ((((((....)))..))) , please.
range 3

Category of GCAGCGGGAAACCACTGC ((((.((....)).)))) , please.
range 3

Category of GTTTGCCGAAAGGCGAAC (((.(((....))).))) , please.
range 3

Category of GGTGATGGAAACGTTACC (((.(.(....).).))) , please.
range 1

Category of GTAGTCGGAAACGACTGC (.(((((....))))).) , please.
range 3

Category of GGGCTCGAAAGAGGCCCC ((((((....)))..))) , please.
range 3

Category of GGAGACGAAAGTCATCC ((((((....))).))) , please.
range 2

Category of GGATCAGGAAACTGATTC (.(((((....))))).) , please.
range 2

Category of GATCGTGAGCACGATC ((((((....)))))) , please.
range 3

Category of GTGCTAGGAAACTAGCGC (.(((((....))))).) , please.
range 3

Category of GCTTCCGAAAGGATTAGC ((((((....)))..))) , please.
range 1

Category of GATCAACCACTTGATC ((((((....)))))) , please.
range 2

Category of GCATGGCGAAAGCGAAGC ((.(.((....)).).)) , please.
range 1

Category of GCCAACGAAAGTTGGGC ((((((....))).))) , please.
range 3

Category of GACCGTGGAAACGCGGTC (((((.(....).))))) , please.
range 3

Category of GATCCCTGCGGGATC ((((((...)))))) , please.
range 3

Category of GCGGTTGCGAAAGCACGC (((..(((....)))))) , please.
range 3

Category of GACAAGGGAAACCCTGTC ((((.((....)).)))) , please.
range 2

Category of GTCACGGGAAACCGTGGC (.(((((....))))).) , please.
range 3

Category of GATCTCTAAGGAGATC ((((((....)))))) , please.
range 3

Category of GCGACGCGAAAGCAACGC (((..((....))..))) , please.
range 3

Category of GATCGTCCAGACGATC ((((((....)))))) , please.
range 3

Category of GCATGGCGAAAGCTAAGC ((.(.((....)).).)) , please.
range 1

Category of GATCTGCCGAAAGGCATC (((..(((....)))))) , please.
range 1

Category of GTTAGACGAAAGTCAAAC (((.(((....))).))) , please.
range 2

Category of GATCATAATATGATC ((((((...)))))) , please.
range 2

Category of GCTACGCGAAAGCTTCGC ((.(.((....)).).)) , please.
range 1

Category of GATCAATTTATTGATC ((((((....)))))) , please.
range 3

Category of GCGGCGTCGAAAGACCGC (((..(((....)))))) , please.
range 3

Category of GCGGAGGGAAACTTCCGC (((((.(....).))))) , please.
range 3

Category of GTCAGCTCGAAAGAGGAC (((..(((....)))))) , please.
range 1

Category of GCTTCACGAAAGTGTAGC (((.(((....))).))) , please.
range 3

Category of GATCACCTAGGTGATC ((((((....)))))) , please.
range 3

Category of GCACGGCGAAAGCTGCGC ((.(.((....)).).)) , please.
range 3

Category of GAGCGAGGAAACTCACTC (((.(((....))).))) , please.
range 2

Category of CGCGGAGAGTCCGCG ((((((...)))))) , please.
range 3

Category of GTCATGGCGAAAGCCGAC (((..(((....)))))) , please.
range 2

Category of GATATTGGAAACAGTATC ((((.((....)).)))) , please.
range 1

----------
So I've got a bunch of sequences here, and I need their Tm values.
Assay Procedure: melting temperature; fluorescence melt of hairpins on a sequencing array, two-state fit, raised by 9.35 °C to match UV melts
Experimental Conditions: sodium 0.088 M
Your answer is read as °C, so omit the unit and give the number.

Input GGTCGTCGAAAGACCACC (((.(((....))).))) . Output Tm: 45.9

Input GATCTTTGTAAAGATC ((((((....)))))) . Output Tm: 47.5

Input GATAAGACGAAAGTCATC (((..(((....)))))) . Output Tm: 26.7

Input GCCACGGGAAACCGCAGC ((..(((....)))..)) . Output Tm: 34.1

Input GCTAACGAAAGTTTTAGC ((((((....)))..))) . Output Tm: 33.6

Input GTATCCCGAAAGGGTTAC (((.(((....))).))) . Output Tm: 47.4

----------
Assay Procedure: folding enthalpy; higher = less favourable; fluorescence melt of hairpins on a sequencing array, two-state fit
Experimental Conditions: sodium 0.088 M
So I've got a bunch of sequences here, and I need their folding enthalpy values.
Your answer is read as kJ/mol, so omit the unit and give the number.

Input GGGGAGGAAACTCCCC ((((((....)))))) . Output folding enthalpy: -154

Input GCGTATTACGC ((((...)))) . Output folding enthalpy: -105

Input GTTTACGAAAGTAAAAAC ((((((....)))..))) . Output folding enthalpy: -50.2

Input GCGACGGGAAACTGTCGC (((((.(....).))))) . Output folding enthalpy: -150

Input GATCATGACATGATC ((((((...)))))) . Output folding enthalpy: -168

Input GTTACGCGAAAGCGCAAC (((.(((....))).))) . Output folding enthalpy: -81.1

Input GATCACCGGGGTGATC ((((((....)))))) . Output folding enthalpy: -195

Input GGCGTCGAAAGACTAGCC ((((((....)))..))) . Output folding enthalpy: -142

Input GGTAGCGAAAGCTAAACC ((((((....)))..))) . Output folding enthalpy: -62.6

Input GCGTCTCGACGC ((((....)))) . Output folding enthalpy: -113

Input GTGCTCGAAAGAGTCCAC ((((((....)))..))) . Output folding enthalpy: -54.9

Input GGAAGGGGAAACCCTCCC ((.((((....)))).)) . Output folding enthalpy: -88
